Hi there, I'd appreciate the recorded EC50 for every entry that follows.
# target-under-test: 5-HT4 receptor (Rattus norvegicus, UniProt Q62758)
# Construct: The inner tunica muscularis mucosa was mounted under 0.2-0.3 g of tension in a tissue bath
# Sequence (Q62758 whole entry): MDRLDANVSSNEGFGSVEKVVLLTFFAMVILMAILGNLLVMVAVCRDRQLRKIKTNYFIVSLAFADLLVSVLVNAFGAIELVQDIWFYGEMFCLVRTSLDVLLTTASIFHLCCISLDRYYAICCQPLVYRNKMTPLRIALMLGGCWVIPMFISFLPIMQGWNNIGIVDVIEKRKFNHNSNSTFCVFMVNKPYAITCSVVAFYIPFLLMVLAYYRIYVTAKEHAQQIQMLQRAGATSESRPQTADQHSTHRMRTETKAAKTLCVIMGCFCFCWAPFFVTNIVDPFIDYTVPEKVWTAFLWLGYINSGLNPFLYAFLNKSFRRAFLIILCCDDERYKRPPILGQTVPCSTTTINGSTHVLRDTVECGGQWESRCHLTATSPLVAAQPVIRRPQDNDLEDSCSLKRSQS
# assay-conditions: Table I; tissues from 5 rats; carbachol 3 μM; read-out: 5-HT4 Agonism (Rat TMM) In Vitro Assay: EC50 values
# From the text: (Baxter et al., Naunyn Schmied Arch. Pharmacol, 1991, 343, 439). […] One with skill in the art could determine the activity of the compounds of the present invention using the methodology of these assays, described herein, without undue experimentation. One 2 cm segment of intrathoracic esophagus proximal to the diaphragm was removed from male rats, weighing approximately 300 gm, and the outer muscle layers removed. […]
// return numeric value only (unit: nM, not printed)

Task: Field request: EC50 | item: COc1cc(N)c(Cl)cc1C(=O)NC[C@@H]1[C@H]2C[C@H]3C[C@@H]1N(C3)C2 (relative stereo) [Example 1]
Result: 175

Task: Could you do the same for COc1cc(N)c(Cl)cc1C(=O)NC[C@@H]1[C@@H]2C[C@@H]3C[C@H]1N(C3)C2 (relative stereo) , please?
Result: 415

Task: Would you mind doing COc1cc(N)c(Cl)cc1C(=O)NC[C@H]1[C@@H]2C[C@@H]3C[C@H]1N(C3)C2 as well?
Result: 274

Task: Moving on to the next molecule: COc1cc(N)c(Cl)cc1C(=O)NC[C@@H]1[C@H]2C[C@H]3C[C@@H]1N(C3)C2 [Example 3]
Result: 140
